src = PubChem BioAssay (NCI)

assay: NCI Yeast Anticancer Drug Screen. Data for the sgs1 mgt1 strain (AID 161);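 note: 0% = growth of cultures given vehicle only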; settings: S. cerevisiae sgs1 mgt1 strain, at 50.0 µM, active compounds read high
The panel holds about 79,000 compounds, 15% with a hit somewhere; the sample as a whole holds those more often.
quantityKind: growth inhibition (%)
Use % as the unit, but write only the number.

Examples with their reported growth inhibition follow.
compound	growth inhibition (%)
CCOC(=O)CC(CSCP(=O)(OCC)OCC)C(=O)OCC (stereo not given)	13.2
CCOC(=O)C(CC)C1=CCCCC1 (stereo not given)	-11.2
CC1CCCCN1Cc1ccccc1COC(=O)c1ccc([N+](=O)[O-])cc1 (stereo not given)	4.8
O=C1C=CC(=Nc2ccc3c(c2)C(=O)c2cc(F)ccc2-3)O1	9.2
ClC1CC/C=C\CC/C=C/CCC1Cl (stereo not given)	22.1
CC(C(c1ccccc1)C(Br)C(=O)c1ccccc1)[N+](=O)[O-] (stereo not given)	95
O=c1nnc(O)c2ccn(O)cc1-2	1.65
CC1C/C(=C\c2ccccc2)C(=O)/C1=C/c1ccccc1 (stereo not given)	7.3

Suppose we examine the compound O=C(O)c1cnc2cc3c(cc2c1Nc1cccc(C(F)(F)F)c1)OCO3 ; what growth inhibition value has been reported?
5.15

Suppose we examine the compound CCc1cc2c(oc3c4ccccc4ccc23)c(=O)[nH]1 ; what growth inhibition value has been reported?
-15.7

Suppose we examine the compound C=C1C(C)C2C(Cc3ccccc3)NC(=O)C23OC(=O)/C=C\CC(=O)CCC(C)C/C=C/C3C1O (stereo not given) ; what growth inhibition value has been reported?
93

Suppose we examine the compound Cc1cccc(CN)n1 ; what growth inhibition value has been reported?
17.4

Suppose we examine the compound O=C1OC(=O)c2c1ccc1ccccc21 ; what growth inhibition value has been reported?
6.8

====

test: NCI Yeast Anticancer Drug Screen. Data for the mlh1 rad18 strain (AID 175); settings: S. cerevisiae mlh1 rad18 strain growth inhibition; at 50.0 µM; active compounds read high
Compounds without any hit were thinned out: in the full panel of roughly 79,000, 15% have a hit.
quantityKind: growth inhibition (%)
Use % as the unit, but write only the number.

Examples with their reported growth inhibition follow.
compound	resultUnit	measured
COC1CCC2CC3(CCC2(C)C1O)OCCO3 (stereo not drawn)	%	-14.4
CC(C)=CCC1=C(OCC(=O)O)C(=O)c2ccccc2C1=O	%	23.1

Suppose we examine the compound O=C(NCCCOc1ccc(Cl)c(Cl)c1)NCCc1ccc(Cl)c(Cl)c1 ; what growth inhibition value has been reported?
15.4

====

assay: NCI Yeast Anticancer Drug Screen. Data for the cln2 rad14 strain (AID 165);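 note: 0% = growth equal to vehicle treated cultures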; settings: S. cerevisiae cln2 rad14 strain, at 50.0 µM, active compounds read high
About 79,000 compounds went through this panel and 15% of them were active in at least one assay; those are over-represented in the sample as a whole. Activity calls are given as the source filed them. No stated cut-off is given here; in the data, active means growth inhibition above about 70%; inactive means the rest.
quantityKind: growth inhibition

molecule	measured
Cc1cc(N(CCC#N)CCC#N)ccc1/C(N=Nc1ccc([N+](=O)[O-])cc1)=N\NC(=O)c1cc(Cl)ccc1O	6.85% (inactive)
CC(=O)NC1=NCC(CSc2nc3ccccc3s2)S1 (stereo not drawn)	-26.2% (inactive)
CCCCCC(=O)OC(C)COc1ccccc1 (stereo not drawn)	-10.8% (inactive)
CN(C=O)c1ccc2c(c1)C(=O)c1ccccc1-2	4.2% (inactive)
NC(N)=NS(=O)(=O)c1ccc(Nc2c3ccccc3nc3c(C(=O)Nc4ccc(S(N)(=O)=O)cc4)ccc(Cl)c23)cc1	29.8% (inactive)
O=C1OC(=O)c2c1ccc1ccccc21	-8.35% (inactive)
CCOC(=O)C(=O)O	-7.8% (inactive)

Suppose we examine the molecule Clc1cccc(-c2nc3cccc4c3n2Cc2ncccc2-4)c1 ; what growth inhibition value has been reported?
-9.4% (inactive)

====

assay: NCI Yeast Anticancer Drug Screen. Data for the sgs1 mgt1 strain (AID 161);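 note: 0% = growth of cultures given vehicle only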; conditions: S. cerevisiae sgs1 mgt1 strain, at 50.0 µM, active compounds read high
This is part of a sample that, as a whole, favours compounds with a hit. Of some 79,000 tested, about 15% had one in any assay.
Reported growth inhibition values for a set of compounds
Use % as the unit, but write only the number.

compound	resultUnit	growth inhibition
CCOC(=O)CC1C(O)C(=O)N(C)C1c1ccccc1 (stereo not given)	%	1.75

Suppose we examine the compound Cc1ccc2c(c1)-c1nc3nnnn3nc1C(C)(C)O2 ; what growth inhibition value has been reported?
34

Suppose we examine the compound CCOC(=O)c1cnc(SC)nc1Nc1ccc(OC)cc1 ; what growth inhibition value has been reported?
7.35

Suppose we examine the compound CC1C2c3ccccc3C(c3ccccc32)C1CN1C(CCO)COC1c1ccccc1 (stereo not given) ; what growth inhibition value has been reported?
-3.25

Suppose we examine the compound C=CCN(CC=C)C(=O)C(=C)C ; what growth inhibition value has been reported?
-5.5

====

experiment: NCI Yeast Anticancer Drug Screen. Data for the sgs1 mgt1 strain (AID 161);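 note: 0% = growth of cultures given vehicle only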; conditions: S. cerevisiae sgs1 mgt1 strain, at 50.0 µM, active compounds read high
Compounds without any hit were thinned out: in the full panel of roughly 79,000, 15% have a hit.
quantityKind: growth inhibition (%)
Use % as the unit, but write only the number.

Examples with their reported growth inhibition follow.
compound	growth inhibition [%]
CC(=O)n1[nH]c(=O)n(-c2ccccc2)c1=O	-17.9
CCOC(=O)/C=C/C(=O)N1CCN(C(=O)/C=C/C(=O)OCC)C(C)C1 (stereo not given)	-6.7
CCOC(=O)C(/C=C/C(C)C)(CC)C(=O)OCC	8.2
CC(=O)Nc1ccc2c(c1)C(=O)c1ccc(S(C)(=O)=O)cc1-2	-0.95
CC1=CCC(C#N)N(C)C1c1ccccc1 (stereo not given)	-13.4
CC(=O)OC1CCC2=C3CCC4(C)C(=O)CCC4C3C(O)C2(C)C1 (stereo not given)	-5.3
CCOC(=O)CCCCCCCCCC[N+](CC)(CC)CC(=O)c1ccc(NC(C)=O)cc1	3.5
COc1cc2c(cc1OC)C(=O)N(c1ccc(OCCN3CCCC3)cc1)C2=O	4.7
O=C1CCN2C=CC=CC2=N1	2.15
COc1ccc2c(c1)OC(C)(C)C(c1ccccc1)=C2c1ccc2c(c1)NCCO2	11.1

Suppose we examine the compound COC(=O)[C@H](Cc1ccccc1)NP(=O)(OCCC#N)OCC1OC(n2cc(C)c(=O)[nH]c2=O)CC1N=[N+]=[N-] (stereo not given in full) ; what growth inhibition value has been reported?
-19.3

Suppose we examine the compound Nc1ccc([N+](=O)[O-])c(C(F)(F)F)c1 ; what growth inhibition value has been reported?
4.25

Suppose we examine the compound Cc1cc(=O)n(Cc2ccco2)c(=S)[nH]1 ; what growth inhibition value has been reported?
14.6

Suppose we examine the compound O=c1n(-c2ccccc2)c(=O)n2n1C1C=CC2C23C=CC12CCCC3 (stereo not given) ; what growth inhibition value has been reported?
9.05

Suppose we examine the compound CCOC(=O)C(NC(C)=O)(C(=O)OCC)C1CCCCC1=O (stereo not given) ; what growth inhibition value has been reported?
-33.4

====

Experiment: NCI Yeast Anticancer Drug Screen. Data for the bub3 strain (AID 167)
Settings: S. cerevisiae bub3 mutant strain, at 50.0 µM, active compounds read high
Experimental: Growth inhibition of yeast strains with defined genetic alterations is measured as a screen for potential anti-cancer activity. Selected strains with alterations in DNA damage repair or cell cycle control were exposed to compounds and growth inhibition was measured relative to vehicle treated controls. The strain used in this assay is bub3
Compounds without any hit were thinned out: in the full panel of roughly 79,000, 15% have a hit.
Label scheme for growth inhibition: lower than 20% is n, 20% and above is y.

// below: answered compounds
compound	classAssignment
CC1c2ccc3ccccc3c2C(=O)c2cccc(Cl)c21 (stereo not drawn)	n
CC(CO)(CO)Nc1ncnc2ccccc12	n
O=C1ON(c2ccccc2)C(c2ccc(OCc3ccccc3)cc2)N1c1ccccc1 (stereo not drawn)	y
CCOC(=O)c1ccc(Nc2nc3ccccc3nc2C(=O)OCC)cc1	n

Does the compound O=C(OCCOc1ccc(Cl)cc1Cl)c1ccccc1O have recorded growth inhibition that is 20% or more?
n

Does the compound O=c1[nH]c2cc(Cl)c([N+](=O)[O-])cc2c2ccc(Cl)cc12 have recorded growth inhibition that is 20% or more?
n

Does the compound NC(=NC1CCCCC1)c1ccc(C(=O)OCC2CCCCC2)cc1 have recorded growth inhibition that is 20% or more?
y

Does the compound CC(=O)Oc1ccc2c(c1)oc1c3ccc(OC(C)=O)cc3n(C)c(=O)c21 have recorded growth inhibition that is 20% or more?
n

====

assay: NCI Yeast Anticancer Drug Screen. Data for the mec2-1 strain (AID 157); conditions: S. cerevisiae mec2-1 strain, at 50.0 µM, active compounds read high
Compounds without any hit were thinned out: in the full panel of roughly 79,000, 15% have a hit.
quantityKind: growth inhibition (%)
Use % as the unit, but write only the number.

Examples with their reported growth inhibition follow.
molecule	growth inhibition [%]
N=C(N)SCc1cccc2ccc3cccc(CSC(=N)N)c3c12	8.5
CCCCOC(=O)/C=C\C(=O)NC(=O)NC(C)(C)C	1.2
CCOCC(=O)N[C@H]1CCc2cc(OC)c(OC)c(OC)c2-c2ccc(SC)c(=O)cc21	26.9
C/C(=N\NC(=O)c1ccncc1)c1cccc(Br)c1	13.9
O=c1[nH]c(-c2ccncc2)nnc1-c1ccc(Cl)cc1	-8.1

Suppose we examine the molecule O=[N+]([O-])c1ccc(N/N=C/C(Br)(Br)Br)c([N+](=O)[O-])c1 ; what growth inhibition value has been reported?
-0.65

Suppose we examine the molecule N#CCOc1ccc(/C=C/C(=O)c2ccc(Cl)cc2)cc1 ; what growth inhibition value has been reported?
-53.6

Suppose we examine the molecule OCC1COc2cc(Cl)c(Cl)cc2O1 (stereo not drawn) ; what growth inhibition value has been reported?
9.65
